From: patent US9493435B2

# Measured on: human IRE-1α (GST-IRE-1α) (Homo sapiens (Human))
# Assay text: IRE-1α assay (cleavage of mini-XBP-1 mRNA stem-loop substrate)
# Type: biochemical
# Conditions: average IC50 for inhibition of IRE-1α in vitro
Endpoint name: IC50

### Prompt Would you mind telling me what IC50 value was observed for N#Cc1ccc(Oc2ccc3c(C=O)c(O)ccc3c2)cc1 [Compound 181] ?
### Response < 1000 nM

### Prompt Would you mind telling me what IC50 value was observed for CSc1ncc(-c2ccc3c(C=O)c(O)ccc3c2)cn1 [Compound 64] ?
### Response > 1000 nM

----------
# Measured on: human IRE-1α (GST-IRE-1α) (Homo sapiens (Human), UniProt O75460)
# Sequence (O75460 19-977): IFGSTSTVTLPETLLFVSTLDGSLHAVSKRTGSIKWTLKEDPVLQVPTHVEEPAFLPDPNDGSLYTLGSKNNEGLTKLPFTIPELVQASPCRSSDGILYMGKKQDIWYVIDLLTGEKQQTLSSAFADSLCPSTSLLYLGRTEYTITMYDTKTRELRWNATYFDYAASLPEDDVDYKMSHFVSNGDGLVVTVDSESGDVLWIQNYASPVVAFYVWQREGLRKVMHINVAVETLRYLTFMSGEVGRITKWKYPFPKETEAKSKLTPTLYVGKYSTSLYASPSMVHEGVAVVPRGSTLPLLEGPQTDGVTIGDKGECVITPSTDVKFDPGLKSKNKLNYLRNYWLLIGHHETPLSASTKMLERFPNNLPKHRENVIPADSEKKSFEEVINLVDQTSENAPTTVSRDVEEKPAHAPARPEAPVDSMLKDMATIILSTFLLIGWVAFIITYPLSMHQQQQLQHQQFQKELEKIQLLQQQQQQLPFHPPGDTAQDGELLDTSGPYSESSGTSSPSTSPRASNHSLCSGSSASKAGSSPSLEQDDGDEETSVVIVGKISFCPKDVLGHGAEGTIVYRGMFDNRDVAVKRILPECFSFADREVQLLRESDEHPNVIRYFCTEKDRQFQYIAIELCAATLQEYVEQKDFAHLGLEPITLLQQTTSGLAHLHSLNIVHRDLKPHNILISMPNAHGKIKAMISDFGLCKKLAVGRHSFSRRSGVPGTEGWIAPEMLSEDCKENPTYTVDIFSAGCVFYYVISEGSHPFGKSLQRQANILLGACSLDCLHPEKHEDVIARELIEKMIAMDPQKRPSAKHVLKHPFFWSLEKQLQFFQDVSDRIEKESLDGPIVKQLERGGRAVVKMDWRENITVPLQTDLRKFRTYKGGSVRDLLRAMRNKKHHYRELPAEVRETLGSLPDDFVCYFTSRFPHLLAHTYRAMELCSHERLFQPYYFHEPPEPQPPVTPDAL
pIC50: −log10 of the molar value.
Endpoint name: pIC50

### Prompt Write down the reported pIC50 of O=Cc1c(O)ccc2cc(/C=C/C(=O)O)ccc12 , test system: human IRE-1α (GST-IRE-1α) (Homo sapiens (Human), UniProt O75460).
### Response > 6.00

### Prompt Write down the reported pIC50 of O=Cc1c(O)ccc2cc(N3CCC(C(=O)N4CCCCC4)C3)ccc12 (stereo not shown) , test system: human IRE-1α (GST-IRE-1α) (Homo sapiens (Human), UniProt O75460).
### Response < 6.00

### Prompt Write down the reported pIC50 of O=Cc1c(O)ccc2cc(-c3ccc(C(=O)NCCN4CCOCC4)s3)ccc12 , test system: human IRE-1α (GST-IRE-1α) (Homo sapiens (Human), UniProt O75460).
### Response > 7.00

### Prompt Write down the reported pIC50 of O=Cc1c(O)ccc2ccc(N3CCOCC3)cc12 , test system: human IRE-1α (GST-IRE-1α) (Homo sapiens (Human), UniProt O75460).
### Response < 6.00

### Prompt Write down the reported pIC50 of CN(Cc1ccccc1)C1CCN(c2ccc3c(C=O)c(O)ccc3c2)C1 (stereo not shown) , test system: human IRE-1α (GST-IRE-1α) (Homo sapiens (Human), UniProt O75460).
### Response < 6.00

### Prompt Write down the reported pIC50 of Cc1nc(-c2ccc3c(C=O)c(O)ccc3c2)sc1C(=O)NC1CCN(C)CC1 , test system: human IRE-1α (GST-IRE-1α) (Homo sapiens (Human), UniProt O75460).
### Response > 6.00

### Prompt Write down the reported pIC50 of O=Cc1c(O)ccc2cc(-c3ccc(C(=O)NCCCN4CCOCC4)s3)ccc12 , test system: human IRE-1α (GST-IRE-1α) (Homo sapiens (Human), UniProt O75460).
### Response > 7.00

### Prompt Write down the reported pIC50 of O=Cc1c(O)ccc2cc(-c3cccc(C(=O)N4CCCC4)c3)ccc12 , test system: human IRE-1α (GST-IRE-1α) (Homo sapiens (Human), UniProt O75460).
### Response > 7.00

### Prompt Write down the reported pIC50 of Cc1nc(-c2ccc3c(C=O)c(O)ccc3c2)sc1C(=O)NCCN1CCOCC1 , test system: human IRE-1α (GST-IRE-1α) (Homo sapiens (Human), UniProt O75460).
### Response > 7.00

### Prompt Write down the reported pIC50 of CCN(CC)C(=O)c1cccc(-c2ccc3c(C=O)c(O)ccc3c2)n1 , test system: human IRE-1α (GST-IRE-1α) (Homo sapiens (Human), UniProt O75460).
### Response > 6.00

### Prompt Write down the reported pIC50 of CN1CCN(C(=O)COc2ccc3c(C=O)c(O)ccc3c2)CC1 , test system: human IRE-1α (GST-IRE-1α) (Homo sapiens (Human), UniProt O75460).
### Response < 6.00

### Prompt Write down the reported pIC50 of CN1CCC(NC(=O)c2ccc(-c3ccc4c(C=O)c(O)ccc4c3)s2)C1 (stereo not shown) , test system: human IRE-1α (GST-IRE-1α) (Homo sapiens (Human), UniProt O75460).
### Response > 7.00

### Prompt Write down the reported pIC50 of O=Cc1c(O)ccc2cc(-c3ccc(C(=O)N4CCNCC4)s3)ccc12 , test system: human IRE-1α (GST-IRE-1α) (Homo sapiens (Human), UniProt O75460).
### Response > 6.00
